Measured values drawn from ChEMBL document CHEMBL5029169 for this set.

Molecular target: Mitogen-activated protein kinase 8 (Homo sapiens) (UniProt P45983)
Sequence (P45983 whole entry): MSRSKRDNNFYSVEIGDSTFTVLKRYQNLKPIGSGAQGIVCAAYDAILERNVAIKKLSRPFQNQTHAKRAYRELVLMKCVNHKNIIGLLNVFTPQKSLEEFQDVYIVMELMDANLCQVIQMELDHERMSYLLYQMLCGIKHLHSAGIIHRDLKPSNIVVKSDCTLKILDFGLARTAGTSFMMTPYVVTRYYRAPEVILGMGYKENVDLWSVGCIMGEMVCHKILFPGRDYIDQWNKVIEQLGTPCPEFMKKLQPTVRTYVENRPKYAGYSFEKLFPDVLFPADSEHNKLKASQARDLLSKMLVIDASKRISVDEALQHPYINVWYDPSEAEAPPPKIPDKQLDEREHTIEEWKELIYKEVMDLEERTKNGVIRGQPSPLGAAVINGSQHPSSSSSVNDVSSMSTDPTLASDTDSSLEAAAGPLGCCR
Assay: Inhibition of MAPK8 (unknown origin) at 1 uM measured after 1 hr relative to control
In this section, each of the compounds is paired with its reported inhibition.
PARAMETER: inhibition

INSERT INTO assay_data (compound, reported_value) VALUES
  ('C=CC(=O)N1CCC2(CC1)CNC(=O)c1cc(-c3ccnc(Nc4ccccc4OC(C)C)n3)[nH]c12', '50%'),
  ('C=CC(=O)N1CCC2(CC1)CNC(=O)c1cc(-c3nc(Nc4ccccc4OC)ncc3C)[nH]c12', '85%'),
  ('C=CC(=O)N1CCC2(CC1)CNC(=O)c1cc(-c3ccnc(Nc4ccccc4OC)n3)[nH]c12', '80%'),
  ('C=CC(=O)Nc1cc(Nc2nccc(-c3cn(C)c4ccccc34)n2)c(OC)cc1N(C)CCN(C)C [OSIMERTINIB]', '0%'),
  ('C=CC(=O)N1CCC2(CC1)CNC(=O)c1cc(-c3ccnc(Nc4ccccc4OC)c3)[nH]c12', '87%');

* * *

Catalogue of compounds with associated pIC50
Target: Epidermal growth factor receptor (Homo sapiens, UniProt P00533)
Sequence (P00533 whole entry): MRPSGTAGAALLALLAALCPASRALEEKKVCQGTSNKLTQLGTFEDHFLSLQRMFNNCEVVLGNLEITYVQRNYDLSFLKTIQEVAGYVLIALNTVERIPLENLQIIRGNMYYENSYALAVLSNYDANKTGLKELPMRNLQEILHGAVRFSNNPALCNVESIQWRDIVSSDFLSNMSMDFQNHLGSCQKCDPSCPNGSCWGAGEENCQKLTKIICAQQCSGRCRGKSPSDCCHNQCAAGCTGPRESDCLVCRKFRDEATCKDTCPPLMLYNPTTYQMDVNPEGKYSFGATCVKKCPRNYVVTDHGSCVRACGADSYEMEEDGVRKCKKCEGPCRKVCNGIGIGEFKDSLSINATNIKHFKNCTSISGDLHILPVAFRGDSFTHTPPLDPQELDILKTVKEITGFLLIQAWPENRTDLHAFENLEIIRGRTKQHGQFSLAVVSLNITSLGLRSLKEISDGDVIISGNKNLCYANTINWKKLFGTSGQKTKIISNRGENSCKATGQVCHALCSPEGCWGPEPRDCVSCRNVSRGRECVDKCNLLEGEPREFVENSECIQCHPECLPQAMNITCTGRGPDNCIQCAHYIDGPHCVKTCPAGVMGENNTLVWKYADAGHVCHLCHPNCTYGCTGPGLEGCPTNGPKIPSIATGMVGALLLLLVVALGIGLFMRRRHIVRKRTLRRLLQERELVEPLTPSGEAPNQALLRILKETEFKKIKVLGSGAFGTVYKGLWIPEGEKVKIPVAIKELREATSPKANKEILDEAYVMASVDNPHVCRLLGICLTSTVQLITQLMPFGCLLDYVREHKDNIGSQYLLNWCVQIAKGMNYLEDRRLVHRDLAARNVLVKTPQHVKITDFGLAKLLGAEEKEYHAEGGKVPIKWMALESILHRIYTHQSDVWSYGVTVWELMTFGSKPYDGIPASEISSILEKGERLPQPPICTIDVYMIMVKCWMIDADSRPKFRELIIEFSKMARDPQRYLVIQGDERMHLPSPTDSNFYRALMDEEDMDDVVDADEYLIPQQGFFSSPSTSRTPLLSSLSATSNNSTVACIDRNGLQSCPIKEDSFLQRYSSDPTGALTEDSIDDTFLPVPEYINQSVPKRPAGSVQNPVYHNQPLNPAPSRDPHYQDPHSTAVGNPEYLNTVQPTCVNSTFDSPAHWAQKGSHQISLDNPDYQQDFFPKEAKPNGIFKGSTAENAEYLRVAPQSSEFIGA
pIC50: −log10 of the molar value.
PARAMETER: pIC50

INSERT INTO results (smiles_notation, parameter, reported_value) VALUES
  ('C=CC(=O)N1CCC2(CC1)CNC(=O)c1cc(-c3ccnc(Nc4ccccc4OC)n3)[nH]c12', 'pIC50', 9.40),
  ('C=CC(=O)N1CCC2(CC1)CNC(=O)c1cc(-c3ccnc(-c4cccc(OC)c4)n3)[nH]c12', 'pIC50', 7.49),
  ('C=CC(=O)N1CCC2(CC1)CNC(=O)c1cc(-c3nc(Nc4ccccc4OC)ncc3C)[nH]c12', 'pIC50', 8.85);

* * *

Molecular target: Epidermal growth factor receptor (Homo sapiens, UniProt P00533, L858R/T790M)
Sequence (P00533 25-1210 T790M/L858R limits assumed): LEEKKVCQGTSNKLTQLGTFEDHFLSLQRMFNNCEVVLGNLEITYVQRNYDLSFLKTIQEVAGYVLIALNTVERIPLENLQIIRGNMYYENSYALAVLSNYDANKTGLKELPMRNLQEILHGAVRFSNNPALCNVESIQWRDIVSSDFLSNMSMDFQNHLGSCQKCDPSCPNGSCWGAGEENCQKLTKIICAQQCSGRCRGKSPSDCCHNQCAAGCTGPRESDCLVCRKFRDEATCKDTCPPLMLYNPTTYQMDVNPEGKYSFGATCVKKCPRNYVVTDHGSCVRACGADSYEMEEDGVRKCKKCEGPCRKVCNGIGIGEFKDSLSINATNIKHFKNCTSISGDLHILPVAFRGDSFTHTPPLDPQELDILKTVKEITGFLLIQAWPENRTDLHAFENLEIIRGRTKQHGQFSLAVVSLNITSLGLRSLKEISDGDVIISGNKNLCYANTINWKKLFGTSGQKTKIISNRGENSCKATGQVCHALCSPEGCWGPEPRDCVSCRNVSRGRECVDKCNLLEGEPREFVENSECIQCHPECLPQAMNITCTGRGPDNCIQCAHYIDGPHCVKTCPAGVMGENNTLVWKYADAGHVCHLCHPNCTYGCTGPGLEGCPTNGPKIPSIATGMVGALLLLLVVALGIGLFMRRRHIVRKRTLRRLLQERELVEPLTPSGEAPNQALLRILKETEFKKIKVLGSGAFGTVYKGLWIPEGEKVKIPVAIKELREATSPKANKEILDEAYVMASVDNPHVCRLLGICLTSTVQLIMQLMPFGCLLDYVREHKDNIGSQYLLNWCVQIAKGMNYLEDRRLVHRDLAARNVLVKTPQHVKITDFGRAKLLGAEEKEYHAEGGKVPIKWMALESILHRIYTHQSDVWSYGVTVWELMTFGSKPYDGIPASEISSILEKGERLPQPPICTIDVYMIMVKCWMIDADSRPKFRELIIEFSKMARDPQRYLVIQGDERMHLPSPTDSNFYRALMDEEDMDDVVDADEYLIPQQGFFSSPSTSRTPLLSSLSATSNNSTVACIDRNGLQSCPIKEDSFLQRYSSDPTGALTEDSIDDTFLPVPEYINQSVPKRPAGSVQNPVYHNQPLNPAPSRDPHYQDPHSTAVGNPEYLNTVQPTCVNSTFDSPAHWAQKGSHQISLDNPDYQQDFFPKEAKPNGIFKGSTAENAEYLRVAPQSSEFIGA
Experiment: Inhibition of EGF-induced phosphorylation of EGFR T790M/L858R double mutant in human NCI-H1975 cells preincubated for 120 mins followed by EGF stimulation and measured after 10 mins by ELISA
PARAMETER: EC50 (nM)

INSERT INTO measurements (smiles_notation, tested_target, unit_annotation, qualifier_symbol, reported_value) VALUES
  ('C=CC(=O)N1CCC2(CC1)CNC(=O)c1cc(-c3ccnc(Nc4ccccc4OC)c3)[nH]c12', 'Epidermal growth factor receptor (Homo sapiens, UniProt P00533, L858R/T790M)', 'nM', '>', 10000),
  ('C=CC(=O)N1CCC2(CC1)CNC(=O)c1cc(-c3nc(Nc4ccccc4OC)ncc3Cl)[nH]c12', 'Epidermal growth factor receptor (Homo sapiens, UniProt P00533, L858R/T790M)', 'nM', '=', 3.1),
  ('COc1ccccc1Nc1nccc(-c2cc3c([nH]2)C2(CCN(C(=O)C#CN(C)C)CC2)CNC3=O)n1', 'Epidermal growth factor receptor (Homo sapiens, UniProt P00533, L858R/T790M)', 'nM', '=', 2180),
  ('C=CC(=O)N1CCC2(CC1)CNC(=O)c1cc(-c3ccnc(Nc4ccccc4OC(C)C)n3)[nH]c12', 'Epidermal growth factor receptor (Homo sapiens, UniProt P00533, L858R/T790M)', 'nM', '=', 8.8);

* * *

Molecular target: Mitogen-activated protein kinase kinase kinase kinase 4 (Homo sapiens) (UniProt O95819)
Sequence (O95819 2-1239 limits assumed): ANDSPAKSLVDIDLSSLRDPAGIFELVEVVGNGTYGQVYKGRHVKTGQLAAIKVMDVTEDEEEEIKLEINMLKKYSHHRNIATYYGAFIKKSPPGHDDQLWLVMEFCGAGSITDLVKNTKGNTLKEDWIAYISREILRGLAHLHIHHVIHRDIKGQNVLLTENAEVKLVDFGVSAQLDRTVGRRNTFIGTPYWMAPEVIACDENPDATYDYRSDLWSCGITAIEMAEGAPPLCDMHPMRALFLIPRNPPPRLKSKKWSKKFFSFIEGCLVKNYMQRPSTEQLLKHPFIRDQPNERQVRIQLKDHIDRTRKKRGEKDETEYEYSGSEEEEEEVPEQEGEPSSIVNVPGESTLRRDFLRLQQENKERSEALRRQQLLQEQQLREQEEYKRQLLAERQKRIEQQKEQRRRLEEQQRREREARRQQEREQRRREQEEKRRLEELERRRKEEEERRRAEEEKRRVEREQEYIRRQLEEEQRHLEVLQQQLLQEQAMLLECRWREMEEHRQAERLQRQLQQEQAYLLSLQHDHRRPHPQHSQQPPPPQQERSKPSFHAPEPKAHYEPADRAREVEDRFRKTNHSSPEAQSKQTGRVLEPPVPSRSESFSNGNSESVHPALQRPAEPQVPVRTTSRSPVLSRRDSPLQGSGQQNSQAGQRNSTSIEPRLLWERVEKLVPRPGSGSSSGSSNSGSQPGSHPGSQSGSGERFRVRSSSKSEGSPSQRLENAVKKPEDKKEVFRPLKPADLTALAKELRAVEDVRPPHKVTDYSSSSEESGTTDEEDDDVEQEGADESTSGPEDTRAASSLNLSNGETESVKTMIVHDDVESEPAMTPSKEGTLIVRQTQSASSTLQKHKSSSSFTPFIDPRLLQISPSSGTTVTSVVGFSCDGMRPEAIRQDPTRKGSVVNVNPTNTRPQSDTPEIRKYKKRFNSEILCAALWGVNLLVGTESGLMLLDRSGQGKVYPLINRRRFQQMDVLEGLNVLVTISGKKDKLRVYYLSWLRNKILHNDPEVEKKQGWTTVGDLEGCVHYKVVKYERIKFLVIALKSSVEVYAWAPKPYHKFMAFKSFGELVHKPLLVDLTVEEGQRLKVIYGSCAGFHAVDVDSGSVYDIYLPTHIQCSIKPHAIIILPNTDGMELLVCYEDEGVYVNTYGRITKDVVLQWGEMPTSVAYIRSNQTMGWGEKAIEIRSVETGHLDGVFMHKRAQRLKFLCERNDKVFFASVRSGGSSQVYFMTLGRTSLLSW
Assay: Inhibition of MAP4K4 (unknown origin) at 1 uM measured after 1 hr relative to control
// reported inhibition for each item listed
PARAMETER: inhibition (%)

INSERT INTO measurements (compound, unit_annotation, reported_value) VALUES
  ('C=CC(=O)Nc1cc(Nc2nccc(-c3cn(C)c4ccccc34)n2)c(OC)cc1N(C)CCN(C)C [OSIMERTINIB]', '%', 78),
  ('C=CC(=O)N1CCC2(CC1)CNC(=O)c1cc(-c3ccnc(Nc4ccccc4OC(C)C)n3)[nH]c12', '%', 32),
  ('C=CC(=O)N1CCC2(CC1)CNC(=O)c1cc(-c3ccnc(Nc4ccccc4OC)c3)[nH]c12', '%', 80),
  ('C=CC(=O)N1CCC2(CC1)CNC(=O)c1cc(-c3ccnc(Nc4ccccc4OC)n3)[nH]c12', '%', 91),
  ('C=CC(=O)N1CCC2(CC1)CNC(=O)c1cc(-c3nc(Nc4ccccc4OC)ncc3C)[nH]c12', '%', 89);
